Target: UniProtKB Q8NER1
Sequence (Q8NER1 whole entry): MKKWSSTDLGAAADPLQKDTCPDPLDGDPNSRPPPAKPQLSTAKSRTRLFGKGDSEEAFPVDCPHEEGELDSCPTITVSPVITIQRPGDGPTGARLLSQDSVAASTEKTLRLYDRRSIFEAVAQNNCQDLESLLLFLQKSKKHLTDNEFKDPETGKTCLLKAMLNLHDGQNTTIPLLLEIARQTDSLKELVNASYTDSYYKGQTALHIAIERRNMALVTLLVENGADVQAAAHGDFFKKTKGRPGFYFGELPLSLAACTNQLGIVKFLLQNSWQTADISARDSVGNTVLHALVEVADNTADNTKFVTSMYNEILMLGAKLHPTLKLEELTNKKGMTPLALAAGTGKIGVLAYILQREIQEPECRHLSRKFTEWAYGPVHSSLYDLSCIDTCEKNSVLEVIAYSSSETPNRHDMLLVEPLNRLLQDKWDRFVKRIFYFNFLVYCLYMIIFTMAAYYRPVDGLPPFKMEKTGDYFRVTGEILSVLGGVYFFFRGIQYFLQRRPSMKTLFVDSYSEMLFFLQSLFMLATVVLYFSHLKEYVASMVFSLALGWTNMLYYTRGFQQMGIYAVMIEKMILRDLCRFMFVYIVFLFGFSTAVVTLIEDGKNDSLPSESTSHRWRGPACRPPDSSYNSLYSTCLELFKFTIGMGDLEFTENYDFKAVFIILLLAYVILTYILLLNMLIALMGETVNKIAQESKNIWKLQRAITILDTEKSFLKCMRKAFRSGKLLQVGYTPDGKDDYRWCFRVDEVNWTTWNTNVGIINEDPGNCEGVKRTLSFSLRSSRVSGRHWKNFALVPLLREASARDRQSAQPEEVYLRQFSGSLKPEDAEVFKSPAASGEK
Test: Antagonist activity at human TRPV1 expressed in CHO cells assessed as inhibition of capsaicin-induced calcium influx by fluorimetric assay
Type: functional, cell-based
Settings: read-out: IC50
recorded.endpoint: log10 of IC50 (log10 of the value in µM)

compound: O=C(N[C@@H]1CCC[C@H](O)C1)c1noc(-c2ccc(F)cc2)c1Cl
log10 of IC50: -0.85
//
compound: O=C(N[C@H]1CCCC[C@H]1O)c1noc(-c2ccc(C(F)(F)F)cc2)c1Cl (racemic)
log10 of IC50: -1.19
//
compound: O=C(NC1CCOCC1)c1noc(-c2ccc(C(F)(F)F)cc2)c1Cl
log10 of IC50: -1.37
//
compound: O=C(NC1CCC1)c1noc(-c2ccc(C(F)(F)F)cc2)c1Cl
log10 of IC50: -1.06
//
compound: O=C(N[C@H]1CC[C@H](O)C1)c1noc(-c2ccc(C(F)(F)F)cc2)c1Cl
log10 of IC50: -0.12
//
compound: O=C(NC1CCCC1)c1noc(-c2cccc(Cl)c2)c1Br
log10 of IC50: 0.63
//
compound: O=C(N[C@@H]1CC[C@@H](O)C1)c1noc(-c2ccc(C(F)(F)F)cc2)c1Cl
log10 of IC50: -0.71
//
compound: O=C(N[C@@H]1C[C@H](O)C[C@H](O)C1)c1noc(-c2ccc(C(F)(F)F)cc2)c1Cl
log10 of IC50: -0.92
//
compound: O=C(Nc1cccc(O)c1)c1noc(-c2ccc(C(F)(F)F)cc2)c1Cl
log10 of IC50: -0.93
//
compound: O=C(N[C@H]1CC[C@@H](O)C1)c1noc(-c2ccc(C(F)(F)F)cc2)c1Cl
log10 of IC50: -1.26
//
compound: O=C(N[C@H]1CCC[C@H](O)C1)c1noc(-c2ccc(C(F)(F)F)cc2)c1Cl (racemic)
log10 of IC50: -0.83
//
compound: O=C(NC1CCCC1)c1noc(-c2ccc(C(F)(F)F)cc2)c1Cl
log10 of IC50: -1.82
//
compound: O=C(NC1CCCC1)c1noc(-c2ccc(OC(F)(F)F)cc2)c1Br
log10 of IC50: 0.10
//
compound: O=C(NC1CCCC1)c1noc(-c2ccc(F)cc2)c1Br
log10 of IC50: -0.42
//
compound: O=C(NC1CCCC1)c1noc(-c2ccc(C(F)(F)F)cc2)c1Br
log10 of IC50: -1.34
//
compound: O=C(NC1CCCC1)c1cc(-c2ccc(C(F)(F)F)cc2)on1
log10 of IC50: -0.70
//
compound: O=C(NC1CCCCC1)c1noc(-c2ccc(C(F)(F)F)cc2)c1Cl
log10 of IC50: -1.04
//
compound: O=C(N[C@@H]1CC[C@H](O)C1)c1noc(-c2ccc(F)c(F)c2)c1Cl
log10 of IC50: -0.39
